reportedProperty: melting point

{"compound": "COc1ccc(S(=O)(=O)n2ccc3ccnc(-c4ccco4)c32)cc1 [Compound 16]", "reportedProperty": "melting point", "observedValue": "127.1 to 130.3 °C"}

melting point reported for this compound COc1ccc(S(=O)(=O)N2CCc3cccc(-c4cccc(F)c4)c32)cc1 [Compound 35] : 180 to 181.3 °C

Measured melting point, COc1ccc(S(=O)(=O)n2ccc3ccnc(N(C)C)c32)cc1 [Compound 3] : 154.8 to 157.5 °C

Measured melting point of COc1ccc(S(=O)(=O)N2CCc3cccc(-c4ccc(C(F)(F)F)cc4)c32)cc1 [Compound 34] : 179.7 to 181 °C

Just so you know, measured melting point for COc1ccc(S(=O)(=O)N2CCc3cccc(-c4ccc([N+](=O)[O-])cc4)c32)cc1 [Compound 37] came out at 177.1 to 178.4 °C
